# procedureText: qHTS of pediatric cancer cell lines to identify multiple opportunities for drug repurposing: Primary screen for OHS-50 cells (AID 1347103); note: nearly all actives have a fitted effect of over 40% in size
# experimentalConditions: OHS-50 osteosarcoma viability, CellTiter-Glo luminescence, 48 h; series mostly up to 57.3 µM
Inconclusive results are not listed. The source made the active and inactive calls. Calls come from the whole dose curve; as a rule, active = well fitted cell-killing curve with a large enough effect; inconclusive = small, poorly fitted or top-dose-only effect; inactive = no such curve, though single readings can be large or run the other way.
// classify into active, inactive

> print(dat)
                                   molecule       cat
1                   CC(C)(C)C(=O)NCCCC(=O)O  inactive
2                  C[C@@H](O)[C@H](N)C(=O)O  inactive
3  CN1CCOC(c2ccccc2)c2ccccc2C1 (stereo not drawn)  inactive
4  OCC(O)CN1CCN(c2ccccc2)CC1 (stereo not drawn)  inactive
5    O=C(O)Cc1sc(-c2ccccc2)nc1-c1ccc(Cl)cc1  inactive

Q: // param item: O=C1NC(=O)[C@@]2(CCOc3ccc(F)cc32)N1 ; yields the recorded call
Result: inactive

Q: What about this molecule? CCCn1cnc2c1c(=O)n(CCCCC(C)=O)c(=O)n2C
Result: inactive

* * *

# procedureText: qHTS of pediatric cancer cell lines to identify multiple opportunities for drug repurposing: Primary screen for BT-12 cells (AID 1347101); note: nearly all actives have a fitted effect of over 25% in size; note: potency is the fitted concentration of half-maximal effect
# experimentalConditions: BT-12 viability, CellTiter-Glo luminescence, 48 h; series mostly up to 57.3 µM
# Experimental: Drug repurposing or repositioning has been offered as a strategy for drug development in oncology programs. […] [1] Shen, M et al. Quantitative high-throughput phenotypic screening of pediatric cancer cell lines identifies multiple opportunities for drug repurposing. […] Cells were assayed in growth media at a density of 500-1,000 cells/well. […] After a 15 min incubation at room temperature, samples were analyzed for luminescence intensity using a ViewLux High-throughput CCD imager equipped with clear filters.
Inconclusive results are not listed. Active and inactive are the calls of the source. The call rests on the fitted dose curve; in most records, active means well fitted cell-killing curve with a large enough effect; inconclusive means small, poorly fitted or top-dose-only effect; inactive means flat fitted curve, though single readings scatter.
assayMetric: Potency

// solved cases for Potency follow
> print(dat)
                                   molecule    recordedresult
1  COc1ccc2cc1Oc1ccc(cc1)C[C@H]1c3c(cc4c(c3Oc3cc5c(cc3OC)CCN(C)[C@@H]5C2)OCO4)CCN1C  24.6 µM (active)
2  C[C@H](NC(CCc1ccccc1)C(=O)O)C(=O)N1CCC[C@H]1C(=O)O (stereo partly specified)          inactive
3                            O=Cc1ccccc1C=O          inactive
4          O=C(O)COc1nn(Cc2ccccc2)c2ccccc12          inactive
5                        [Cl][In]([Cl])[Cl]          inactive

Now look at this entry.
Q: Would you mind telling me what Potency value was observed for CC(=O)Oc1ccc(C2(c3ccc(OC(C)=O)cc3)C(=O)Nc3ccccc32)cc1 ?
Result: inactive

* * *

# System: DIV17
# procedureText: qHTS profiling for inhibitors of Plasmodium falciparum proliferation (AID 504749); note: nearly all actives have a fitted effect of over 60% in size
# experimentalConditions: P. falciparum in erythrocytes, SYBR Green DNA, 72 h; series mostly up to 28.7 µM
Results filed as inconclusive are left out. Activity calls are given as the source filed them. The call rests on the fitted dose curve; in most records, active means well fitted inhibition curve with a large enough effect; inconclusive means small, poorly fitted or top-dose-only effect; inactive means flat fitted curve, though single readings scatter.
// classify into active, inactive

Study these solved cases before continuing.
> print(dat)
                 structuresmilesstring       cat
1                      O=c1cc(CO)occ1O  inactive
2     Nc1nc2c(ncn2CCC(CO)CO)c(=O)[nH]1  inactive
3  Cc1cc2c(cc1S(N)(=O)=O)S(=O)(=O)CCC2  inactive
4     CN(C)CCCN1c2ccccc2Sc2ccc(Cl)cc21    active
5                NC(=O)NC(=O)Cc1ccccc1  inactive

Q: // param item: Cc1cccc(Nc2cc(Cl)nc(SCC(=O)O)n2)c1C ; yields the recorded call
Result: inactive

Q: What about this compound? CNC(=O)Oc1ccc2c(c1)[C@]1(C)CCN(C)[C@@H]1N2C
Result: active

Q: What about this compound? O=C1O[C@H]([C@@H](O)CO)C(O)=C1O
Result: inactive

Q: What about this compound? CN1CCC[C@@H]1Cc1c[nH]c2ccc(CCS(=O)(=O)c3ccccc3)cc12
Result: active

Q: What about this compound? O=S(=O)(O)c1cc(I)c(O)c2ncccc12
Result: inactive
